# System: HOP-62 NSCLC
# Procedure Details: NCI-60 one-dose screen, 48 h
# Experimental Setup: 10 µM unless noted
About 83,000 compounds went through this panel and 20% of them were active in at least one assay; those are over-represented in the sample as a whole. Activity calls are given as the source filed them. The calls were made as follows: active = growth percent below 10; inactive = the rest.
Form entry, call: pick from yes (1) for active, no (0) for inactive

Observe how each entry below is paired with its result.
[
  {
    "Molecule": "CNCc1cccc2c1OCCOCCOCCN(CCN1CCOCC1)S(=O)(=O)c1ccc(cc1)-c1cnc(N)c(n1)C(=O)N2",
    "Experimental Target": "HOP-62 NSCLC",
    "Classification": "no (0)"
  },
  {
    "Molecule": "CCCCCCN1C(=O)CN=C1Nc1ccc2cc3ccc(NC4=NCC(=O)N4CCCCCC)cc3nc2c1",
    "Experimental Target": "HOP-62 NSCLC",
    "Classification": "no (0)"
  },
  {
    "Molecule": "COC(=O)/C=C/c1cc(OC)c2c(c1)[C@@H](C(=O)OC)[C@H](c1ccc(OC)c(OC)c1)O2",
    "Experimental Target": "HOP-62 NSCLC",
    "Classification": "no (0)"
  }
]

### Prompt What was the test verdict on CC(=O)ON1CCCC(P(=O)(OCOC(=O)C(C)(C)C)OCOC(=O)C(C)(C)C)C1=O (stereo not drawn) ?
### Response yes (1)

### Prompt What was the test verdict on COc1ccc(-c2cc(-c3nnc(SCC(=O)Nc4ccc(C(C)=O)cc4)o3)c3ccccc3n2)cc1 ?
### Response yes (1)

### Prompt What was the test verdict on CCSc1ccc(C2C(Br)C(=O)N2c2cc(OC)c(OC)c(OC)c2)cc1 (stereo not drawn) ?
### Response no (0)

### Prompt What was the test verdict on COc1ccc(-c2nnc(N3CCN(C(=O)CN4CCN(c5ccccc5)CC4)CC3)nc2-c2ccc(OC)cc2)cc1 ?
### Response no (0)

### Prompt What was the test verdict on Nc1ccc(C2=NN(C(=O)c3cc(-c4ccc(Cl)cc4)nc4ccccc34)C(c3ccccc3)C2)cc1 (stereo not drawn) ?
### Response no (0)

====

# System: SNB-75 CNS
# Procedure Details: NCI-60 one-dose screen, 48 h (100 = growth as untreated, 0 = no growth, -100 = all killed)
# Experimental Setup: 10 µM unless noted
The panel holds about 83,000 compounds, 20% with a hit somewhere; the sample as a whole holds those more often.
We label by threshold. Values of growth strictly beneath 80% are 1 (yes). Values of 80% and up are 0 (no).

Observe how each entry below is paired with its result.
[
  {
    "Compound": "Clc1ccc2c(NCCCNC3CCCCC3)ccnc2c1",
    "Classification": "0 (no)"
  },
  {
    "Compound": "COc1ccc(-c2cc(-c3nnc(SCC(=O)Nc4ccc(C(C)=O)cc4)o3)c3ccccc3n2)cc1",
    "Classification": "1 (yes)"
  },
  {
    "Compound": "COc1cc(F)c(-c2nc3c(C)cccc3n2Cc2c(F)cccc2F)c(F)c1",
    "Classification": "1 (yes)"
  },
  {
    "Compound": "CCSc1ccc(C2C(Br)C(=O)N2c2cc(OC)c(OC)c(OC)c2)cc1 (configuration not stated)",
    "Classification": "1 (yes)"
  },
  {
    "Compound": "S=C(Nc1ccccc1)c1ccccn1",
    "Classification": "0 (no)"
  }
]

Pending compound:
### Prompt Confirm or reject: growth of O=C1Nc2ccc(Cl)cc2/C1=N/c1nc(-c2ccc(F)cc2)cs1 lies strictly below 80%
### Response 1 (yes)

Just for reference, PubChem BioAssay (NCI) is where these values come from.
